# melting point per entry

Answered cases to consult:
- Molecule: "N#Cc1ccc(OCC(NNC(=O)Nc2ccc(OC(F)(F)F)cc2)c2ccccc2)cc1 (stereo unspecified)"
  melting point: "176 °C"
- Molecule: "N#CC(CNC(=O)Nc1cncnc1)C(=O)O (stereo unspecified)"
  melting point: "183 °C"
- Molecule: "CCCCc1ccc(N)c(C(=O)C(=O)OC(=O)C(=O)c2cc(CCCC)ccc2N)c1"
  melting point: "218 to 220 °C"
- Molecule: "CC(=O)N1CCC(C(=NO)c2ccc(Cl)cc2Cl)CC1"
  melting point: "167 to 168 °C"
- Molecule: "COc1cccc2c1OC(CN1CC=C(c3c[nH]c4cc(F)ccc34)CC1)CO2 (stereo unspecified)"
  melting point: "184 to 185 °C"

Please report the recorded melting point for O=C1c2ccccc2C(=O)N1CC(O)Cn1ccnc1[N+](=O)[O-] (stereo unspecified) .
213 to 214 °C

Which value of melting point has been reported for `Fc1ccc(F)c(CN2CCNc3ncc(-c4cn[nH]c4)cc32)c1Cl` in the records?
272 °C

Entry under review: CCSC1COC(Cn2cncn2)(c2ccc(Cl)cc2Cl)C1 (stereo unspecified) . Reported melting point?
64 °C

----------
Parameter: melting point

Sample answers from the record:
- Compound: "Cn1nc(-c2cc([N+](=O)[O-])c(Cl)cc2Cl)cc1OC(F)F"
  melting point: "134 to 137 °C"
- Compound: "CCC(=O)c1c(O)oc(=O)c(C(=O)CC)c1O"
  melting point: "114 to 115 °C"
- Compound: "CC(N)Cc1ccc(C(N)=O)s1 (racemic)"
  melting point: "91 to 92 °C"

# get_value(readout='melting point', item= `C#CCN(Cc1cc2c(=O)n(C)c(CN3CCN(CCO)CC3)nc2cc1Cl)c1ccc(C(=O)NCc2cccnc2)cc1` )
115 to 117 °C

Request the reported melting point associated with CCCNC(=O)C1Cc2[nH]c3ccc(OC)cc3c2C1 (stereo unspecified)
141 to 143 °C

Quick one: melting point for CCCN(CCC)CC(=O)OC1CC2(C)C(C(C)=O)CCC2C2CCC3CC(O)CCC3(C)C12 (stereo unspecified) ?
116 to 118 °C

----------
Parameter: melting point

Requested read-out: melting point. Entry: `CCCCCCn1c2c(c(=O)n3nc(-c4ccccc4)cc13)CN(C1CCCCC1)C2=O`
162 to 164 °C

Entry under review: `CS(=O)(=O)Oc1ccc(-c2cc3ccc(OS(C)(=O)=O)cc3s2)cc1` . Reported melting point?
195 to 197 °C

Bench note: what melting point did CC(C)C(C(=O)O)c1ccc2ccccc2c1 (stereo unspecified) show?
129 to 130 °C

I am curious: what melting point value has been reported for CC1=C(C(=O)OC(C)C)C(c2ccccc2F)c2c[nH]nc2N1 (stereo unspecified) ?
218 to 220 °C

I would be grateful if you could share the reported melting point for CC(=O)OC1CCC2(C)C(CCC3C2CCC2(C)C3CCC2C(C)(O)C#N)C1 (stereo unspecified) .
168 to 178 °C

For the compound shown here, `CCc1cc2[nH]c(=O)ccc2c(CC)n1` , give the reported melting point.
168 to 169 °C

----------
Parameter: melting point

- Molecule: "CN1C(=O)c2cc(Cl)ccc2N(C(=O)CCN2CCCC2)c2ccccc21"
  Meas value: "118 to 120 °C"
- Molecule: "C[Si](Cl)(Cl)C(c1ccccc1)(c1ccccc1)c1ccccc1"
  Meas value: "170 to 172 °C"
- Molecule: "COC(=O)C=Cc1ccc(C)s1"
  Meas value: "59 to 60 °C"
- Molecule: "COCCON1C(=O)C(c2c(C)cc(C)cc2C)C(=O)C12CCN(N(C)C)CC2 (stereo unspecified)"
  Meas value: "108 °C"
- Molecule: "COC(=O)c1ccc2nc3c(c(C)nn3-c3ccccn3)c(Cl)c2c1"
  Meas value: "199 to 200 °C"
- Molecule: "N#Cc1ccc(-c2ccc(OCCCCBr)cc2)cc1"
  Meas value: "62.5 to 64 °C"

Need melting point of `O=C(Nc1ccccc1)C(Br)(Br)Br` , thanks.
97 to 98 °C

So what's the measured melting point for this one? Cc1ccccc1C1(n2ccnc2)c2ccccc2-c2sccc21 (stereo unspecified)
75 °C

Any idea what melting point was measured for `O=CNc1ccccc1O` ?
129 °C

Requested field: melting point. Item: `COc1ccc(-n2nc(Sc3cccc(OC)c3)c(C)c(C#N)c2=O)cc1`
143 to 144 °C

Returns the measured melting point for the input molecule. Input: `COC(=O)C(C)(C)Oc1ccc(C(=O)CN2CCN(c3ccncc3)CC2)cc1`
88 to 90 °C

----------
Parameter: melting point

Previously resolved entries follow.
- Compound: "CCCCCCCCCCc1c(C)nc2ccccn2c1=O"
  Meas value: "66 to 67.5 °C"
- Compound: "CN(CCn1ncc(-c2ccccc2)cc1=O)CC(O)c1ccc(NS(C)(=O)=O)cc1 (stereo unspecified)"
  Meas value: "108 °C"
- Compound: "Cc1cc(O)c(C23CC4CC(CC(C4)C2)C3)cc1Br"
  Meas value: "155 to 156 °C"
- Compound: "CC(=O)NC(C)c1ccc(CN2CCN(c3ccccn3)CC2)cc1 (stereo unspecified)"
  Meas value: "120 to 121 °C"
- Compound: "CON(Cc1ccc(F)cc1Cl)C(=O)C1=C(O)C(=O)N(C)C1"
  Meas value: "152 to 155 °C"

Continue with the compound presented below.
Look at this compound and give its reported melting point. CCCC1(O)CCN(C)C(Cc2ccc(OC)cc2)C1(C)C (stereo unspecified)
85 to 102 °C

----------
Parameter: melting point

- Molecule: "CC(=O)N1N=C(c2ccc([N+](=O)[O-])cc2)c2cc(Br)ccc2CC1C (configuration not stated)"
  melting point: "228 to 230 °C"

What does the data say about its melting point? Entry: CC(=O)NC(C)Cc1ccc(CCC(=O)O)cc1 (configuration not stated)
93 to 96 °C

// lookup melting point for `CCN(CC)CCNC(=S)N(CCS(=O)(=O)c1ccccc1)C(C)C`
81.5 to 82.5 °C

Record request: melting point value, item `CCOC(=S)SCc1cc(OC)nc(N)n1`
91 to 93 °C

Can you look up the measured melting point of `COc1cc(N)c(Cl)cc1C(=O)NC1CN(C)N(C)C1` for me?
169 to 171 °C

Endpoint output: melting point of `COc1cc2c(cc1Nc1ncc(Cl)c(N[C@H]3[C@@H](C(N)=O)[C@@H]4C=C[C@H]3C4)n1)CCN(Cc1ncco1)CC2` . Value?
110 to 119 °C

Entry under review: `CC(=O)Nc1c(Cl)ccc(C)c1Cl` . Reported melting point?
180 to 182 °C

Which melting point value is on record for `CCOc1ccc(S(=O)(=O)N(CCO)c2ccccc2/C=C/c2ccncc2)cc1` ?
167 to 169 °C

So what's the measured melting point for this one? `COC(=O)c1ccc(Cc2cc3cc(C(F)(F)F)ccc3n2S(=O)(=O)c2ccc(C(C)C)cc2)cc1F`
132 °C

Item CC(c1oc2ccccc2c(=O)c1-c1cc(F)cc(F)c1)n1cnc2c(N)ncnc21 (configuration not stated) has what recorded melting point?
267 to 269 °C

# get_value(readout='melting point', item= N#CC(C(N)=O)c1ccc(F)c(Cl)c1 (configuration not stated) )
156 to 157 °C

Look up melting point: CC1=Nc2ccccc2CC(c2cccnc2)N1C (configuration not stated)
145 to 148 °C

----------
Parameter: melting point

- Molecule: "CN1C[C@H](CN2CCN(C(c3ccccc3)c3ccccc3)CC2)C=C2c3cccc4[nH]cc(c34)C[C@H]21"
  melting point: "> 200 °C"

Continue with the molecule presented below.
I would be grateful if you could share the reported melting point for `Cc1ccc(C)n1-c1cc2c(cc1C(F)(F)F)[nH]c(=O)c(=O)n2CC(=O)O` .
> 270 °C

----------
melting point values by entry

Example results:
- Compound: "CCOC(=O)C(=Cc1ccccc1)S(N)(=O)=O"
  Meas value: "88 to 89 °C"
- Compound: "Cc1cc(O)ccc1C(=O)O"
  Meas value: "160 to 161 °C"
- Compound: "CCOC(=O)C(C)=Cc1ccc(Sc2ccncc2)c(C(F)(F)F)c1"
  Meas value: "> 200 °C"
- Compound: "O=C(CC(Cc1cccc2ccccc12)C(=O)N1C(=O)OCC1Cc1ccccc1)N1CCOCC1 (stereo unspecified)"
  Meas value: "80 to 82 °C"
- Compound: "COC(=O)CCCc1cc2nc(Cl)ccc2n1S(=O)(=O)c1ccc(Cl)cc1Cl"
  Meas value: "100 to 101 °C"
- Compound: "COC(=O)COc1ccc(C(O)CNCc2ccc(C(=O)OC)cc2)cc1 (stereo unspecified)"
  Meas value: "97 to 100 °C"
- Compound: "C[C@@H](O)[C@H]1CC[C@H]2[C@@H]3CC=C4CC(=O)CC[C@]4(C)[C@H]3CC[C@]12C"
  Meas value: "171 to 175 °C"
- Compound: "Cc1ccc(S(=O)(=O)Nc2ccc3cccc(N4CCN(C)CC4)c3c2)cc1"
  Meas value: "180 °C"
- Compound: "COC(=O)C1=C(C)NC(C)=C(c2nnco2)C1c1cccc(Cl)c1Cl (stereo unspecified)"
  Meas value: "225 to 229 °C"
- Compound: "CCOC(=O)Cc1sc(Sc2cc(C(=O)OCC)nc3c(OC)cccc23)nc1C"
  Meas value: "120 to 121 °C"

Which value of melting point has been reported for COC(=O)CCc1cc2c(s1)NC(=O)C(C)N=C2c1ccccc1Cl (stereo unspecified) in the records?
196 to 197 °C

So what's the measured melting point for this one? `CS(=O)(=O)On1c(=O)c2cc3c(=O)n(OS(C)(=O)=O)c(=O)c3cc2c1=O`
> 300 °C

Would you mind telling me what melting point value was observed for `N#Cc1cccc(-c2ccccc2O)c1` ?
120 to 123 °C

Name the reported melting point value associated with the compound `CCN(CC)CCCNc1nnc(C)c2c1cc1n2CCCC1`
171 to 172 °C
